System: S. epidermidis biofilm
Assay: Biofilm prevention concentration (BPC), BisEDT and antibiotics
Format: cell-based, Staphylococcus epidermidis
Details: 0.05 μg/ml BisEDT
READOUT NAME: Change of biofilm prevention concentration (BPC)

# MOLECULE, TESTED SYSTEM, RESULT
records = [
    ("CO[C@H]1/C=C/O[C@@]2(C)Oc3c(C)c(O)c4c(O)c(c(/C=N/N5CCN(C)CC5)c(O)c4c3C2=O)NC(=O)/C(C)=C\\C=C\\[C@H](C)[C@H](O)[C@@H](C)[C@@H](O)[C@@H](C)[C@H](OC(C)=O)[C@@H]1C [Rifampin]", "S. epidermidis biofilm", "remained unaffected"),
    ("CCOc1ccc2ccccc2c1C(=O)N[C@@H]1C(=O)N2[C@@H]1SC(C)(C)[C@@H]2C(=O)O [Nafcillin]", "S. epidermidis biofilm", "remained unaffected"),
    ("Cc1nnc(SCC2=C(C(=O)O)N3C(=O)[C@@H](NC(=O)Cn4cnnn4)[C@H]3SC2)s1 [Cefazolin, cefazolin]", "S. epidermidis biofilm", "modest decreases"),
    ("CN[C@H](CC(C)C)C(=O)N[C@H]1C(=O)N[C@@H](CC(N)=O)C(=O)N[C@H]2C(=O)N[C@H]3C(=O)N[C@H](C(=O)N[C@H](C(=O)O)c4cc(O)cc(O)c4-c4cc3ccc4O)[C@H](O)c3ccc(c(Cl)c3)Oc3cc2cc(c3O[C@@H]2O[C@H](CO)[C@@H](O)[C@H](O)[C@H]2O[C@H]2C[C@](C)(N)[C@H](O)[C@H](C)O2)Oc2ccc(cc2Cl)[C@H]1O [Vancomycin, vancomycin]", "S. epidermidis biofilm", "modest decreases"),
]

----------
System: Escherichia coli
Test: Single-point BisEDT-antibiotic combination FICI
Format: cell-based
Conditions: EC 102
READOUT NAME: FICI, single-point BisEDT-antibiotic combination

# COMPOUND, RESULT
rows = [
    ("CN(C)[C@@H]1C(O)=C(C(N)=O)C(=O)[C@@]2(O)C(O)=C3C(=O)c4c(O)cccc4[C@@](C)(O)[C@H]3C[C@@H]12", 0.62),
    ("CO/N=C(\\C(=O)N[C@@H]1C(=O)N2C(C(=O)[O-])=C(C[N+]3(C)CCCC3)CS[C@H]12)c1csc(N)n1 [Cefepime]", 0.87),
    ("C[C@@H](O)[C@H]1C(=O)N2C(C(=O)O)=C(SCCN=CN)C[C@H]12", 1.11),
    ("CCN1CCN(C(=O)N[C@@H](C(=O)N[C@@H]2C(=O)N3[C@@H]2SC(C)(C)[C@@H]3C(=O)O)c2ccccc2)C(=O)C1=O", 0.87),
]

----------
Tested on: S. epidermidis
Assay: Broth dilution MIC/MBC, BT-antibiotic combinations
Type: cell-based, Staphylococcus epidermidis
Details: S. epidermidis ATCC 35984; BisEDT 0.05 μg/ml
READOUT NAME: MIC (µg/mL)

# COMPOUND, OUTPUT UNIT, RESULT
records = [
    ("CCC[C@@H]1C[C@@H](C(=O)N[C@@H]([C@H]2O[C@H](SC)[C@H](O)[C@@H](O)[C@H]2O)[C@H](C)Cl)N(C)C1 [Clindamycin, clindamycin]", "µg/mL", 1024.00),
    ("CN(C)c1ccc(O)c2c1C[C@H]1C[C@H]3[C@H](N(C)C)C(O)=C(C(N)=O)C(=O)[C@@]3(O)C(O)=C1C2=O [Minocycline, minocycline]", "µg/mL", 0.04),
    ("CCOc1ccc2ccccc2c1C(=O)N[C@@H]1C(=O)N2[C@@H]1SC(C)(C)[C@@H]2C(=O)O [Nafcillin]", "µg/mL", 5.00),
    ("CO[C@H]1/C=C/O[C@@]2(C)Oc3c(C)c(O)c4c(O)c(c(/C=N/N5CCN(C)CC5)c(O)c4c3C2=O)NC(=O)/C(C)=C\\C=C\\[C@H](C)[C@H](O)[C@@H](C)[C@@H](O)[C@@H](C)[C@H](OC(C)=O)[C@@H]1C [Rifampin]", "µg/mL", 0.014),
]
